Biological target: NF-kB p65 (RelA) (UniProt Q04206 Q04206:1-551)
Sequence (Q04206 whole entry, one chain of several): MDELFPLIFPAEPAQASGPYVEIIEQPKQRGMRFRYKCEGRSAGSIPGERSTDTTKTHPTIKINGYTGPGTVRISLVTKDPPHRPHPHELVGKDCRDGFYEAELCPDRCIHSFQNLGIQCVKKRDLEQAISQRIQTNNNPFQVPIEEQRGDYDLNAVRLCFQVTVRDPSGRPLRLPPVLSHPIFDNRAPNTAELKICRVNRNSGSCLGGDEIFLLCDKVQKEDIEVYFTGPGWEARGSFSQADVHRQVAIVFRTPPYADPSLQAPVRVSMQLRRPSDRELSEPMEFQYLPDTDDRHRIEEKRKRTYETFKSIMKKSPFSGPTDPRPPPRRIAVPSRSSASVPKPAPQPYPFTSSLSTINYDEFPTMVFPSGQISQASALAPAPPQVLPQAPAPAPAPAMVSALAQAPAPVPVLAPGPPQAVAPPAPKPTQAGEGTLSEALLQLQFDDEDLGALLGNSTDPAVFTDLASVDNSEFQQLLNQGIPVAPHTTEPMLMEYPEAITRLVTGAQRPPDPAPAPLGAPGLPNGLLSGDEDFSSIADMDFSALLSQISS
Experiment: competition; primary screen 2.23
Conditions: protein: extract; tags: TPA and CI-stimulated Jurkat nuclear extract, Active Motif TransAM kit
readout_type: IC50 (nM)
Numbers only, in nM.

Supply IC50 value. Item: SODN27 (dsDNA, PS all bonds, both strands) DNA 1: CGCAGGGATTTCCCGCGC DNA 2: GCGCGGGAAATCCCTGCG
2.87
